Data provenance is patent US5504098A.

- measurement.target: Myosin light chain kinase (MLCK) (Gallus gallus, UniProt P11799)
- Construct: MLCK was isolated and purified by the method according to Walsh et al; from tissue
- Sequence (P11799 935-1906): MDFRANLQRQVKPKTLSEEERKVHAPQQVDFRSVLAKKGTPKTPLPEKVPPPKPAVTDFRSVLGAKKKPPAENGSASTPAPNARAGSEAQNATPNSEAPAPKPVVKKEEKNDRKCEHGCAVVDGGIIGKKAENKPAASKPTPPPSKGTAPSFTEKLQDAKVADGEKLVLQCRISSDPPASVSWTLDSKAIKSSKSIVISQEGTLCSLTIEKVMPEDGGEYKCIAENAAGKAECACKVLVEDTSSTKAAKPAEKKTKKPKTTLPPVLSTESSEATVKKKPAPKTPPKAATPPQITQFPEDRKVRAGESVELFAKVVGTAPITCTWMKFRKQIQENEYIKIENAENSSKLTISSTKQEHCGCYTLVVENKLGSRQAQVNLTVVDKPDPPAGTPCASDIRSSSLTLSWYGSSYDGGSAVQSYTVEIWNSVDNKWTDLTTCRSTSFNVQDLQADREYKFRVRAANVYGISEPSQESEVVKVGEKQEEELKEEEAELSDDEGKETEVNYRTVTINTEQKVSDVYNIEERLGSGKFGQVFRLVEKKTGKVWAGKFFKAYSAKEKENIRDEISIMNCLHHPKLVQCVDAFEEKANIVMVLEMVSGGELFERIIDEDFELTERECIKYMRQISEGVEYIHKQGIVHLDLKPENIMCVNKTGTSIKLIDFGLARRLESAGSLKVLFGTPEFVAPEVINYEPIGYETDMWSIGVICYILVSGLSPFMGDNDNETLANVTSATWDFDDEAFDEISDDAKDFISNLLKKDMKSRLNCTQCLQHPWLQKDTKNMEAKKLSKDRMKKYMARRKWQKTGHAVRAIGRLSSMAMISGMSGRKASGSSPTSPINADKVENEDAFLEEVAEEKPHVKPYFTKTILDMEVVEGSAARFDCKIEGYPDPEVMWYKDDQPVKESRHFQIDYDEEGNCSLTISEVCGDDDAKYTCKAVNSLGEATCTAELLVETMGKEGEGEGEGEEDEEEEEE
- assay.overview: Measurement of the activity to inhibit Myosin light chain kinase (MLCK)
- Type: biochemical
- protocol.conditions: ATP 20, 30, 50 and 100 μM; double reciprocal plotting; substrate MLC from chicken gizzard; read-out: MLCK inhibiting activity in terms of Ki value
pKi: −log10 of the molar value. Counter-ions that a name gives are not always drawn.
observed.property: pKi

1. CNCCNS(=O)(=O)c1cccc2ncsc12 [Compound 5, hydrochloride] | 3.92

A: O=S(=O)(NCCNCc1ccc2c(c1)OCO2)c1cccc2ncsc12 [Compound 7, hydrochloride]
B: O=S(=O)(c1ccc2ncsc2c1)N1CCNCC1 [Compound 6, hydrochloride]
C: O=S(=O)(c1cccc2ncsc12)N1CCCNCC1 [Compound 1, hydrochloride]
Request: Put the entries in order of pKi, starting with the largest number. In your reply, arrange the labels in the requested order.
Response: B, A, C
(B: 4.60, A: 4.30, C: 4.10)

---

- measurement.target: protein kinase C (PKC)
- assay.overview: Measurement of the activity to inhibit protein kinase C (PKC)
- protocol.conditions: ATP 1, 3, 5 and 10 μM; double reciprocal plotting; PKC from rat brain; read-out: PKC inhibiting activity in terms of Ki value
Where a name gives a salt, the structure may show the parent alone.
observed.property: Ki (µM)

1. O=S(=O)(NCCNCc1cccc(Cl)c1)c1cccc2ncsc12 [Compound 8, hydrochloride] | 5
2. NCCNS(=O)(=O)c1cccc2ncsc12 [Compound 4, hydrochloride] | 5
3. O=S(=O)(c1cccc2ncsc12)N1CCCNCC1 [Compound 1, hydrochloride] | 7

a: O=S(=O)(NCCNCc1ccc2c(c1)OCO2)c1cccc2ncsc12 [Compound 7, hydrochloride]
b: CNCCNS(=O)(=O)c1cccc2ncsc12 [Compound 5, hydrochloride]
Request: Consider entries a and b . Which has the numerically lower Ki? To answer, give the label that identifies your chosen option.
Response: a
(a: 6 µM, b: 35 µM)
